Target: MC1-R (Mus musculus, UniProt Q01727)
Construct: membranes prepared from hMC3-R, hMC4-R, hMC5-R, and B-16 mouse melanoma cells (containing MC1-R); endogenous in cells; host or cells: B-16 mouse melanoma cells (membranes)
Sequence (Q01727 whole entry): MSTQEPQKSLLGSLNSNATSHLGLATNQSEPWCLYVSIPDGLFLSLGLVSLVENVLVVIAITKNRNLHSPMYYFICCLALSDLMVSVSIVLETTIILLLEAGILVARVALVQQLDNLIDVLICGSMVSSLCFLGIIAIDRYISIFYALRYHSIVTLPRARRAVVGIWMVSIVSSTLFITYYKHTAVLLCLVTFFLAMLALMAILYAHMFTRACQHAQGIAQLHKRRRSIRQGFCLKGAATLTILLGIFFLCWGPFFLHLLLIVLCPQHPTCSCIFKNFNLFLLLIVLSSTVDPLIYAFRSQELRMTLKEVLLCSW
Assay: competitive inhibition binding assay, 125I-NDP-alpha-MSH, B-16 mouse melanoma cell membranes
Conditions: 1 μM test peptide; 0.4 nM 125I-NDP-alpha-MSH; B-16 mouse melanoma cell membranes
Square brackets hold non-standard residues; d marks the D form. Ends that are not written are not given here. Nle = CCCC[C@H](N)C(=O)O
reported endpoint: % Inhibition at 1 μM at Melanocortin Receptor 1 (%)
One number for each entry, in %.

Answer for every listed entry: what is its % Inhibition at 1 μM at Melanocortin Receptor 1? The entries follow.
1. Ac-Ser-Tyr-Ser-Nle-Glu-His-Phe-Arg-Trp-Gly-D-Cys-Lys-Pro-Val-NH2 (chain 1 EHFRWG; chain 2 CKPV; not fully specified; Ac-Ser-Tyr-Ser-Nle N-term; D-residue; amide; printed: Glu-His-Phe-Arg-Trp-Gly-; printed: Cys-Lys-Pro-Val-) [2-4]
2. Tyr-Val-Nle-Gly-His-D-Phe-Arg-Trp-Asp-Arg-Cys-NH2 (YV[Nle]GH[dF]RWDRC-NH2; numbers in words are those of the source; also: oxorhenium(V) N3S1 chelate complex (Re=O)) [5-1]

Solution:
[91, 101]
